Tested on: Expi293 cells
method: Measurement of the Cell Association of Helicons (mass spectrometry quantification in cells after treatment and wash)
Assay type: cell-based
measurement_setup: percentage of Helicons in cells after treatment and wash, 22 hours, n = 2, mean ± SD
metric_name: Helicon in cells ± SD (%)
// units = %; emit number, no label

Endpoint output: Helicon in cells ± SD (%) of CC[C@H](C)[C@H](NC(=O)[C@H](Cc1ccc(O)cc1)NC(=O)[C@H](CCC(N)=O)NC(=O)[C@]1(C)CCCC=CCCCCCC[C@@](C)(NC(=O)[C@H](Cc2c[nH]cn2)NC(=O)[C@@H](NC(=O)[C@@H](NC(C)=O)[C@@H](C)CC)[C@@H](C)CC)C(=O)N[C@@H](Cc2ccc(O)cc2)C(=O)N[C@@H](CCC(=O)O)C(=O)N[C@@H](C)C(=O)N[C@@H](C)C(=O)N[C@@H](Cc2ccccc2)C(=O)N[C@@H](Cc2ccccc2)C(=O)N1)C(N)=O (single isomer, unassigned) [FP08011] . Value?
6.5
